This collection of values is drawn from patent US20060134719A1.

Biological target: purified protein solution (signal-FLAG-ARS-extracellular protein) (Homo sapiens, UniProt Q7Z410, INS90FVSSFQKTELEASCVGCSVLNYRDGNSSVLVHFQ)
Construct: made in house; host or cells: HEK293-EBNA
Sequence (Q7Z410 with tags, fused parts or gaps INS90FVSSFQKTELEASCVGCSVLNYRDGNSSVLVHFQ): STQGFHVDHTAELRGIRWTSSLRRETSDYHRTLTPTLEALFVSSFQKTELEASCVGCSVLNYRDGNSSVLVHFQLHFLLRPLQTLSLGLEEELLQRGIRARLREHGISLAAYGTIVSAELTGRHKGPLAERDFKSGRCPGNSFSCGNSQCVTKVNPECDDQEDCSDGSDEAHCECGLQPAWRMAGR
Sequence (Q7Z410 with tags, fused parts or gaps): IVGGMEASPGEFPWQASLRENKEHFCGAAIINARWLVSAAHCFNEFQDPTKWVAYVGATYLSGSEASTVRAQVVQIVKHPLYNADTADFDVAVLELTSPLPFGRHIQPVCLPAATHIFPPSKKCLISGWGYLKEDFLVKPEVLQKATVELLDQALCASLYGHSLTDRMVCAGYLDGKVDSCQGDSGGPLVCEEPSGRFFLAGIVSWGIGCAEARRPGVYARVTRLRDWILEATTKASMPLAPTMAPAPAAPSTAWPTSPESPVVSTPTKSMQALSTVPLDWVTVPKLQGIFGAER
Assay: Enzyme activity of purified recombinant protein using synthetic peptides
Type: biochemical
Conditions: substrate 200 μM or 400 μM, ammonium hydrogen carbonate buffer, 37° C. for one hour; versus buffer control
*: point of attachment. AMC = Cc1cc(=O)oc2cc(N*)ccc12; Boc = CC(C)(C)OC(=O)*
recorded metric: cleavage of synthetic peptide by purified protein solution (fluorescence of released AMC)

>>> result("Boc-Leu-Lys-Arg-{AMC}")
"cleaved"
>>> result("Boc-Leu-Ser-Thr-Arg-MCA (Boc-LSTR-{AMC}; SMILES Cc1cc(=O)oc2cc(NC(=O)[C@H](CCCNC(=N)N)NC(=O)[C@@H](NC(=O)[C@H](CO)NC(=O)[C@H](CC(C)C)NC(=O)OC(C)(C)C)[C@@H](C)O)ccc12) [synthetic peptide substrate labeled with MCA at the C terminus]")
"cleaved"
>>> result("Boc-Glu-Lys-Lys-{AMC}")
"cleaved"
>>> result("Boc-Leu-Gly-Arg-{AMC}")
"cleaved"
